test.system: UniProt:P32245
protocol.notes: Displacement of [125I]Nle4-D-Phe7-alpha-MSH from human MC4 receptor expressed in COS1 cells
property.label: IC50 (µM)

These recorded examples may help you get a feel for the data.
CN1CCN(C(CN2CCN(Cc3ccc4ccccc4c3)CC2)c2ccc(F)cc2)CC1 (racemic): 1.25
Cc1ccc(-c2ccccc2CCCN2CCN(CC(c3ccc(F)cc3)N3CCN(C(C)C)CC3)CC2)cc1 (racemic): 0.0418
CN1CCN(C(CN2CCN(CCCCc3cccc4ccccc34)CC2)c2ccc(F)cc2)CC1 (racemic): 0.118

(A) COc1ccc2ccccc2c1CCCCN1CCN(CC(c2ccc(F)cc2)N2CCN(C(C)(C)C)CC2)CC1 (racemic)
(B) Fc1ccc(C(CN2CCN(CCCCc3cccc4ccccc34)CC2)N2CCN(C3CC3)CC2)cc1 (racemic)
(C) CN1CCN(C(CN2CCN(CCCCCc3cccc4ccccc34)CC2)c2ccc(F)cc2)CC1 (racemic)
(D) COc1ccc(C(CN2CCN(CCCCc3cccc4ccccc34)CC2)N2CCN(C)CC2)cc1 (racemic)
Which order do these items take when sorted by rising IC50? List them. Please list the labels in the order you were asked to rank them.
A, B, C, D

* * *

test.system: Melanocortin receptor 4 (Homo sapiens)
Sequence (P32245 whole entry): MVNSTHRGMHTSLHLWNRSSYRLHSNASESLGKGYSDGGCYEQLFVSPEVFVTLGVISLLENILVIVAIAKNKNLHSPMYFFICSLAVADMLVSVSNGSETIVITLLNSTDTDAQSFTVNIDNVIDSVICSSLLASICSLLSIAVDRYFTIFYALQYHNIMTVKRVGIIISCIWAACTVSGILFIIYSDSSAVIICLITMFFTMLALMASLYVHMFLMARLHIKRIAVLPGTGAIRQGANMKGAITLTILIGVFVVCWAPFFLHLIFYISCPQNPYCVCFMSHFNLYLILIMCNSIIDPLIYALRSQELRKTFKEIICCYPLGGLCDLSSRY
protocol.notes: Displacement of [125I]Nle4-D-Phe7-alpha-MSH from human MC4 receptor expressed in COS1 cells
property.label: IC50 (nM)

These recorded examples may help you get a feel for the data.
CN1CCN(C(CN2CCN(CCCCc3ccc4ccccc4c3)CC2)c2ccc(F)cc2)CC1 (racemic): 336
CCCN1CCN(C(CN2CCN(CCCCc3cccc4ccccc34)CC2)c2ccc(F)cc2)CC1 (racemic): 177
CC(C)N1CCN(C(CN2CCN(CCCc3ccccc3-c3ccc(C(F)(F)F)cc3)CC2)c2ccc(F)cc2)CC1 (racemic): 62.8
COc1ccc2ccccc2c1CCCCN1CCN(CC(c2ccc(F)cc2)N2CCN(C)CC2)CC1 (racemic): 57.3
CN1CCN(C(CN2CCN(CCCCCCc3cccc4ccccc34)CC2)c2ccc(F)cc2)CC1 (racemic): 341
CN1CCN(C(CN2CCN(Cc3cccc4ccccc34)CC2)c2ccc(F)cc2)CC1 (racemic): 594
CC(C)N1CCN(C(CN2CCN(CCCc3c(F)cccc3-c3ccccc3)CC2)c2ccc(F)cc2)CC1 (racemic): 11.7
CC(C)N1CCN(C(CN2CCN(CCCc3ccccc3-c3ccc(OC(F)(F)F)cc3)CC2)c2ccc(F)cc2)CC1 (racemic): 85.9
Fc1ccc(C(CN2CCN(CCCCc3cccc4ccccc34)CC2)N2CCNCC2)cc1 (racemic): 303
CN1CCN(C(CN2CCN(CCCCc3cccc4ccccc34)CC2)c2ccc(-c3ccccc3)cc2)CC1 (racemic): 756

(I) CC(C)N1CCN(C(CN2CCN(CCCc3c(Cl)cccc3-c3ccccc3)CC2)c2ccc(F)cc2)CC1 (racemic)
(II) CN1CCN(C(CN2CCN(CCCCc3cccc4ccccc34)CC2)c2ccc(Cl)cc2)CC1 (racemic)
Identify the entry with the smaller IC50: I or II . Label of pick, please.
I

(I) CC(C)N1CCN(C(CN2CCN(CCCc3cc(F)ccc3-c3ccccc3)CC2)c2ccc(F)cc2)CC1 (racemic)
(II) COc1cccc(-c2ccccc2)c1CCCN1CCN(CC(c2ccc(F)cc2)N2CCN(C(C)C)CC2)CC1 (racemic)
IC50 comparison. Which is larger, I or II ? Label of pick, please.
I
(I: 27.1 nM, II: 15.2 nM)

(A) CN1CCN(C(CN2CCN(CCCCc3cccc4ccccc34)CC2)c2ccc(N)cc2)CC1 (racemic)
(B) CC(C)N1CCN(C(CN2CCN(CCCCc3c(Br)ccc4ccccc34)CC2)c2ccc(F)cc2)CC1 (racemic)
IC50 comparison. Which is larger, A or B ? Label of pick, please.
A
